experimental.system: GABA-A receptor; anion channel (Rattus norvegicus) (UniProt O09028+P15431+P18506+P18508+P19969+P20236+P23574+P23576+P28471+P28473+P30191+P62813+P63079+P63138+Q91ZM7+Q9ES14)
protocol.summary: Hill coefficient for inhibition of ~2 nM [3H]diazepam binding to GABA-A benzodiazepine receptor of rat cerebral cortical membrane
# Lookup of reported Hill coefficient keyed by entry
Answer with a number only.

given.smiles | recorded.value
COC(=O)c1cc2c(cn1)[nH]c1ccccc12 | 0.7
OCc1cc2c3ccccc3nc-2c[nH]1 | 0.93
O=C(O)c1cc2c3ccccc3nc-2c[nH]1 | 0.72
O=Cc1cc2c3ccccc3nc-2c[nH]1 | 0.93

Lab note: next compound to report on.
The compound identified as `CC(=O)c1cc2c3ccccc3nc-2c[nH]1` registered its Hill coefficient at 0.73
